molecular target: T1, human MUC1 on cells (DA3-TM transfectants and human cancer cell lines SKOV3, COLO357, HT29 and others) (human, UniProt P15941 24-1255); experiment: flow cytometry, dose-dependent binding on MUC1 positive DA3-TM cells
T1 construct: also called MUC1-SEA; surface MUC1
T1 sequence (P15941 24-1255 limits assumed): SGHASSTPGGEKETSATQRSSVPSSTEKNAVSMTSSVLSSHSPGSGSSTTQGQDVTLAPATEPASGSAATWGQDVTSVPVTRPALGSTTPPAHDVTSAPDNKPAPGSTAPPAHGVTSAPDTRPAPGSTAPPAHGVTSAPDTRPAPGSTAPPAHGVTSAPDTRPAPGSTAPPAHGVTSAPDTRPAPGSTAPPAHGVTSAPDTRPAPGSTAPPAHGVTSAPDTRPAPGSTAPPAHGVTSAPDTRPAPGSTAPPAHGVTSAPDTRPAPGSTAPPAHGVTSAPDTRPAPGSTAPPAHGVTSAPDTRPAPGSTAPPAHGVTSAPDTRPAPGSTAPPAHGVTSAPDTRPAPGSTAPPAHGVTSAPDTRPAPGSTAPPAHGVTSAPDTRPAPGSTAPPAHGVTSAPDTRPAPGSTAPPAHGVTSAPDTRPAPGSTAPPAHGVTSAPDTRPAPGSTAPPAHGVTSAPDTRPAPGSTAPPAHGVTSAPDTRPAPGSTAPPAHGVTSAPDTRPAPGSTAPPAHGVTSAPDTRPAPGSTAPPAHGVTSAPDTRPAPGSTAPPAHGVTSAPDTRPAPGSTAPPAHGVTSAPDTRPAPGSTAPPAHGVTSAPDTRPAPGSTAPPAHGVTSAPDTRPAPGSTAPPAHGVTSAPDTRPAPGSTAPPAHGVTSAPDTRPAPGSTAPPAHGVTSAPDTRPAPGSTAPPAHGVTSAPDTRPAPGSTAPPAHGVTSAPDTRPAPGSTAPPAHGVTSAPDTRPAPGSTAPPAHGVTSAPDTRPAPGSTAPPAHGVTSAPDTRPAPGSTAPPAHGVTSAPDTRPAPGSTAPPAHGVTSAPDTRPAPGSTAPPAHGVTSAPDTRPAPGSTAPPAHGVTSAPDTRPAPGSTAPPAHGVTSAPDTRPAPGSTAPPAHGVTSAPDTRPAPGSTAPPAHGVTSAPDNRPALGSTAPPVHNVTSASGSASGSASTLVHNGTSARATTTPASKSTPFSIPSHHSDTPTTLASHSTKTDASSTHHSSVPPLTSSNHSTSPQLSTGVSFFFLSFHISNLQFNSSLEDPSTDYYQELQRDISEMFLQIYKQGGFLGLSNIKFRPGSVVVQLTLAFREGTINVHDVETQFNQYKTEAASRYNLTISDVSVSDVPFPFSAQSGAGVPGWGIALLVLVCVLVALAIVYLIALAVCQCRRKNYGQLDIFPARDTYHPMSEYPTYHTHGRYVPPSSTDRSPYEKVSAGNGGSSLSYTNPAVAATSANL
property_label: Kd (nM)
Numeric answer only, unit nM assumed.

binder | reading_unit | numeric_readout
HM5 LM2 variant of humanized anti-MUC1 antibody SP66 (antibody, V domains shown, Humanized IgG expressed in CHO cells; only variable domains tied to the variant) VH: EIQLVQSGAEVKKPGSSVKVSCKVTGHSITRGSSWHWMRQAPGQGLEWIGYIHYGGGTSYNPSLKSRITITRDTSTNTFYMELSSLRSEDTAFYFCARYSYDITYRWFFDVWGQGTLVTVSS VL: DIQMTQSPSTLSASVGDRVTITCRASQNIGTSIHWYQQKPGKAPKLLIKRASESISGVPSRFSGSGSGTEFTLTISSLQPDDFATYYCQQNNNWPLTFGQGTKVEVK | nM | 1.4

Kindly consider the entry below.
stdin: What value of measured Kd is listed for HM2 LM2 variant of humanized anti-MUC1 antibody SP66 (antibody, V domains shown, Humanized IgG expressed in CHO cells; only variable domains tied to the variant) VH: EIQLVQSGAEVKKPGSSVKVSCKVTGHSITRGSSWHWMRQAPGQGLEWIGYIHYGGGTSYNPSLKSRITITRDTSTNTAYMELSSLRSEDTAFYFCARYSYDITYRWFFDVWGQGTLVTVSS VL: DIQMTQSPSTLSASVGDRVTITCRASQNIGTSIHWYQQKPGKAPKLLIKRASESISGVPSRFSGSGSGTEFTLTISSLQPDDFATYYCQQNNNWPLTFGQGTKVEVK ?
stdout: 3.2
